# Measured Target: T1, human ferroportin (SLC40A1) fused in frame with GFP, stably expressed in HEK293 cells (human, UniProt Q9NP59 1-571)
# T1 sequence (looked up): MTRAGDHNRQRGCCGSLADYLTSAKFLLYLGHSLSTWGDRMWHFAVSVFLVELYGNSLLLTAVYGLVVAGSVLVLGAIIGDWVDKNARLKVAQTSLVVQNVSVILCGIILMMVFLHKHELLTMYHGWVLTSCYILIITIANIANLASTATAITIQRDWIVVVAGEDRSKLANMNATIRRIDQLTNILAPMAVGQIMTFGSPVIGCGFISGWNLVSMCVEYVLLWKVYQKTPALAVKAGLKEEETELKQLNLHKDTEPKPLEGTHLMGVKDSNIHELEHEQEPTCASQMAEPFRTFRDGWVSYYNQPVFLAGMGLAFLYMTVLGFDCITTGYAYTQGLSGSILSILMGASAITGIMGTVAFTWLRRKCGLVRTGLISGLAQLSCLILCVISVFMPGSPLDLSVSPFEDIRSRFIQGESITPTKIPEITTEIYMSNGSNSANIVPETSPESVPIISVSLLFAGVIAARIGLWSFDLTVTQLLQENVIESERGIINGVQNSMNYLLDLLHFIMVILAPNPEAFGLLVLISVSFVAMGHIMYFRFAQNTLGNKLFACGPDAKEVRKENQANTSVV
# Measurement Protocol: cell-based or functional assay
Starred links: 1 amine or outer side, 2 acyl side, 3 side chain; linkers in the order of their positions; H or OH if unused. Non-standard residues stand in square brackets, D forms with d. Groups on a side chain read outwards from the residue. *: point of attachment. ButanoicP = (R)-4-(pyrrolidin-2-yl)butanoic acid, O=C(CCC[C@@H]1CCCN1[*:1])[*:2]; Ala(1H-tetrazol-5-yl) = N[C@@H](Cc1nnn[nH]1)C(=O)O; PEG11 = NCCOCCOCCOCCOCCOCCOCCOCCOCCOCCOCCOCCC(=O)O; Dip = N[C@H](C(=O)O)C(c1ccccc1)c1ccccc1; His(τ-Me) = Cn1cnc(C[C@H](N)C(=O)O)c1; Palmitoyl = CCCCCCCCCCCCCCCC(=O)*; β3hF = N[C@H](CC(=O)O)Cc1ccccc1; Isovaleryl = CC(C)CC(=O)*; Ahx = NCCCCCC(=O)O
Quantity Kind: FPN EC50 (nM)

[
  {
    "Binder": "Isovaleryl-ETH[Dip]PAIK([PEG11-Palmitoyl])[β3hF]-NH2 [Isovaleric Acid-E-T-H-[Dpa]-P-A-I-[Lys(2PEG11_Palm)]-[bhPhe]-NH2]",
    "Quantity Kind": "FPN EC50",
    "Unit String": "nM",
    "Recorded Measurement": 44.5
  },
  {
    "Binder": "Isovaleryl-[Ala(1H-tetrazol-5-yl)]T[His(τ-Me)][Dip][ButanoicP]K([Ahx-Palmitoyl])-NH2 (SMILES CCCCCCCCCCCCCCCC(=O)NCCCCCC(=O)NCCCC[C@H](NC(=O)CCC[C@@H]1CCCN1C(=O)[C@@H](NC(=O)[C@H](Cc1cn(C)cn1)NC(=O)[C@@H](NC(=O)[C@H](Cc1nnn[nH]1)NC(=O)CC(C)C)[C@@H](C)O)C(c1ccccc1)c1ccccc1)C(N)=O) [Isovaleric Acid-[Tet1]-T-[His_1Me]-[Dpa]-[ButanoicP]-[Lys(Ahx_Palm)]-NH2]",
    "Quantity Kind": "FPN EC50",
    "Unit String": "nM",
    "Recorded Measurement": 214
  }
]
